Some compounds, each annotated with its measured MIC S. aureus (MRSA) USA300.
System: S. aureus
PROCEDURE DETAILS: Broth dilution MIC determination (CLSI) against S. aureus strains
Type: cell-based
CONDITION DESCRIPTION: USA300, Strain No. MP-549
Excerpt: Minimum inhibitory concentrations (MICs) for macrolides described herein have been determined for unique strains of S. aureus, S. pneumoniae, S. pyogenes, E. faecalis, E. coli, A. baumannii, K. pneumoniae, P. aeruginosa, and H. influenzae, including several multidrug-resistant strains, with a special focus on macrolide resistant mechanisms. Azithromycin and solithromycin were included as control compounds. CLSI standard procedures for broth dilution MIC determination were used. […]

// MIC S. aureus (MRSA) USA300 value for CCC1OC(=O)C(C)C(=O)C(C)C(OC2OC(CNCc3ccc(F)cc3)CC(N(C)C)C2O)C(C)(OC)CC(C)CNC(C)C2N(CCCCn3cc(-c4cccc(N)c4)nn3)C(=O)OC12C (stereo not drawn) : 4 µg/mL

Consider CCC1OC(=O)C(C)C(=O)C(C)C(OC2OC(C)CC(n3cccc3)C2O)C(C)(OC)CC(C)CNC(C)C2N(CCCCn3cc(-c4cccc(N)c4)nn3)C(=O)OC12C (stereo not drawn) . Its measured MIC S. aureus (MRSA) USA300 is >64 µg/mL

Noted for CCC1OC(=O)C(C)C(=O)C(C)C(OC2OC(C)CC(N3CCOCC3)C2O)C(C)(OC)CC(C)CNC(C)C2N(CCCCn3cc(-c4cccc(N)c4)nn3)C(=O)OC12C (stereo not drawn) : its MIC S. aureus (MRSA) USA300 reads >64 µg/mL

----------
Tested on: K. pneumoniae
PROCEDURE DETAILS: Broth dilution MIC determination (CLSI) against K. pneumoniae strains
Format: cell-based
CONDITION DESCRIPTION: K. pneumoniae ATCC 10031, strain MP-14 (Table N4)
log10 MIC by entry:
Recall that a logarithmic scale is used here: each number is log10 of MIC in µg/mL.

Example entries begin here.
{"columns": ["COMPOUND", "log10 MIC"],
 "data": [
  ["CCC1OC(=O)C(C)C(=O)C(C)C(OC2OC(C)CC(N(C)CCCS(C)(=O)=O)C2O)C(C)(OC)CC(C)CNC(C)C2N(CCCCn3cc(-c4cccc(N)c4)nn3)C(=O)OC12C (stereo not shown)", 1.20],
  ["CCC1OC(=O)C(C)C(=O)C(C)C(OC2OC(C)CC(N(C)CCCS(C)(=O)=O)C2O)C(C)(OC)CC(C)CN(C)C(C)C2N(CCCCn3cc(-c4cccc(N)c4)nn3)C(=O)OC12C (stereo not shown)", 1.81],
  ["CCC1OC(=O)C(C)C(=O)C(C)C(OC2OC(C)CC(N(C)CCO)C2O)C(C)(OC)CC(C)CNC(C)C2N(CCCCn3cc(-c4cccc(N)c4)nn3)C(=O)OC12C (stereo not shown)", 0.90],
  ["CCC1OC(=O)C(C)C(=O)C(C)C(OC2OC(C)CC(N3CCC(O)C3)C2O)C(C)(OC)CC(C)CNC(C)C2N(CCCCn3cc(-c4cccc(N)c4)nn3)C(=O)OC12C (stereo not shown) [FSM-120416]", 1.51],
  ["CCC1OC(=O)C(C)C(=O)C(C)C(OC2OC(C)CC(N3CCC(O)C3)C2O)C(C)(OC)CC(C)CNC(C)C2N(CCCCn3cc(-c4cccc(N)c4)nn3)C(=O)OC12C (stereo not shown) [FSM-120417]", 0.60]
]}

Let's switch to this compound now.
Input CCC1OC(=O)C(C)C(=O)C(C)C(OC2OC(C)CC(N(C)CCO)C2O)C(C)(OC)CC(C)CN(C)C(C)C2N(CCCCn3cc(-c4cccc(N)c4)nn3)C(=O)OC12C (stereo not shown) . Output log10 MIC: 1.20

From: patent US11535643B2
